Test system: Plasmodium falciparum
PROCEDURE DETAILS: Screen against P. falciparum Asexual Blood Stage (ABS), at 5uM
Format: functional, Dd2
CONDITION SUMMARY: tested at 5 uM
The campaign covered roughly 65,000 compounds. About 2,100 (3.2%) showed an effect of 50% or more. The median lay at about -52%. Many of the other results were omitted from the sample, so strong results are more common in it than they were.
OUTCOME MEASURE: INHIBITION

Check out these entries, answers already filled in.
1. Cc1noc(CN(C)CC2CCCN(CCc3ccc(Cl)cc3)C2)n1 (stereo not drawn) : -72.6%
2. CCC(CN1CCOCC1)n1cncc1-c1ccc2c(c1)CCCN2C (stereo not drawn) : 31.4%

Then this molecule:
Tell me the measured INHIBITION of CCCn1ccc(C(=O)Nc2ccc3c(c2)C(C)(C)C(=O)N3C)n1 , please.
-3.4%

---

INHIBITION values by entry
System: Plasmodium falciparum
PROCEDURE DETAILS: Screen against P. falciparum Asexual Blood Stage (ABS), at 5uM
Type: functional, Dd2
CONDITION SUMMARY: tested at 5 uM
The whole screen tested about 65,000 compounds, of which about 2,100 (3.2%) showed an effect of 50% or more. The median lay at about -52%. For the sample, strong results were picked, then their nearest neighbours and some compounds at random.
Provide only the numeric value, understood in %.

1. CC(C)c1nc(C2CCCN(Cc3nnc(C4CC4)o3)C2)no1 (stereo not drawn) : -52.6

Tell me the measured INHIBITION of Oc1cccc(-c2cc(C3CCN(Cc4cncnc4)C3)ccn2)c1 (stereo not drawn) , please.
-15.3

Tell me the measured INHIBITION of C1CC(c2noc(C3CC3)n2)N(Cc2nnc(C3CC3)o2)C1 (stereo not drawn) , please.
-1.02

Tell me the measured INHIBITION of Cc1ccc2c(ccn2CC(=O)NC[C@@H]2CCCN3CCCC[C@H]23)c1 , please.
49

Tell me the measured INHIBITION of CN(C)C(=O)CN1C(=O)C[C@@H]2[C@@H]1CCN2Cc1cccc(C#N)c1 , please.
-63

Tell me the measured INHIBITION of O=C(Cn1ccc2cc(Br)ccc21)NC[C@@H]1CCCN2CCCC[C@H]12 , please.
-14

Tell me the measured INHIBITION of CN1CCC2(Cc3ccccc3CN(C(=O)CCN)C2)C1 (stereo not drawn) , please.
-100

Tell me the measured INHIBITION of Cc1cnc(CN(Cc2cccc(O)c2)CC2CC2)cn1 , please.
-23.7

Tell me the measured INHIBITION of COc1cccc(CNC2CCSC2)c1OC (stereo not drawn) , please.
-18.4

Tell me the measured INHIBITION of CC(C)CN1C[C@@H]2CN(S(=O)(=O)c3cccs3)C[C@@H]2C1=O , please.
-43.6

Tell me the measured INHIBITION of O=C(N1CCOCC1)N1CCC2(CC1)CN(c1ccccn1)CCO2 , please.
-99.6

Tell me the measured INHIBITION of Cc1[nH]c2ccccc2c1-c1ccnc(N[C@@H](CO)C(C)C)n1 , please.
-9.36

Tell me the measured INHIBITION of COc1ccc(CNC2CCN(c3ccccc3)C2)c(OC)c1OC (stereo not drawn) , please.
55.2
